These measurements were taken from patent US10266526B2.

- tgt: SMYD2 (Homo sapiens (Human), UniProt Q9NRG4)
- Sequence (Q9NRG4 whole entry): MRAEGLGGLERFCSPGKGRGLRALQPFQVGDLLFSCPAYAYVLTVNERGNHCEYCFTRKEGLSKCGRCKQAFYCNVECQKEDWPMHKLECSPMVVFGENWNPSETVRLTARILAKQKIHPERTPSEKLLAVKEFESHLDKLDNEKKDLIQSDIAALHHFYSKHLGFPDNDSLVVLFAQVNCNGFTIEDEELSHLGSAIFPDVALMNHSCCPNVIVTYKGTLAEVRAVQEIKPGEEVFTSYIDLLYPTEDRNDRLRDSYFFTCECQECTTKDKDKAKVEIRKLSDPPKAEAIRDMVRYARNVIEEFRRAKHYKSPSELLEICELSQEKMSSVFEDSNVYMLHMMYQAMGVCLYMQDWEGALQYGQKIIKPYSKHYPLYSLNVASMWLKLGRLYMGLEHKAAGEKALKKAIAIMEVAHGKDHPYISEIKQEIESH
- measurement.notes: SMYD2 biochemical assay (SMYD2 enzyme assay on peptide substrate, 3H-SAM Flashplate)
- settings: read-out: SMYD2 Biochem IC50; IC50 values are an average of n = 1 to n = 50
Listed here are compounds together with their documented pIC50.
The scale used: pIC50 is minus the common logarithm of the concentration in molar units.

Example cases with answers are listed next.
| compound | tgt | pIC50 |
| --- | --- | --- |
| CC(c1ncccn1)N1CC(NC(=O)c2cn(C3CC3)nn2)C1 (stereo not drawn) | SMYD2 (Homo sapiens (Human), UniProt Q9NRG4) | 5.71 |
| CN(C)CCCNC(=O)c1cn(C2CC2)nn1 | SMYD2 (Homo sapiens (Human), UniProt Q9NRG4) | 5.27 |
| Cn1cnc(CN2CC(NC(=O)c3cn(C4CC4)nn3)C2)c1 | SMYD2 (Homo sapiens (Human), UniProt Q9NRG4) | 5.17 |
| COc1c(CO)cccc1CN1CC(NC(=O)c2cn(C3CC3)nn2)C1 | SMYD2 (Homo sapiens (Human), UniProt Q9NRG4) | 4.97 |
| CC[C@@H](c1cccc(Cl)c1)N1CC(NC(=O)c2cc(C3CC3)cnn2)C1 | SMYD2 (Homo sapiens (Human), UniProt Q9NRG4) | 6.45 |
| O=C(NC1CN(Cc2cnn(CC3CCC3)c2)C1)c1cn(C2CC2)nn1 | SMYD2 (Homo sapiens (Human), UniProt Q9NRG4) | 5.85 |

-- ask Value lookup for pIC50; key = O=C(NC1CN(Cc2cn(Cc3ccccc3)cn2)C1)c1cn(C2CC2)nn1
-- reply 5.15

-- ask Quick one: pIC50 of O=C(NC1CN(Cc2cnn(CC3CCOC3)c2)C1)c1cn(C2CC2)nn1 (stereo not drawn) ?
-- reply 5.70

-- ask Param item = Cn1cnc(CN2CC(NC(=O)c3cc(C4CC4)cnn3)C2)c1Cl ; retrieve measured pIC50.
-- reply 5.13
